Property: GI50; scope: individual molecules
experiment summary: Growth inhibition of human OVCAR3 cells
Type: functional
conditions used: OVCAR-3
State the answer as a number, implicitly in µM.

C=C1C(=O)O[C@H]2[C@H]1CC/C(COC(=O)NCCN1CCCC1)=C\CC[C@@]1(C)O[C@@H]21: 8.41
C/C1=C\CC[C@@]2(C)O[C@@H]2[C@H]2OC(=O)C(CN(C)C)[C@@H]2CC1 (some centres undefined) [DIMETHYLAMINOPARTHENOLIDE]: 12.5
C=C1C(=O)O[C@H]2[C@H]1CC/C(COC(=O)N1CCC(F)(F)CC1)=C\CC[C@@]1(C)O[C@@H]21: 1.69

Turning to the following molecule.
Please look up its GI50: C=C1C(=O)O[C@H]2[C@H]1CC/C(COC(=O)NCCN1CCOCC1)=C\CC[C@@]1(C)O[C@@H]21
6.2
